protocol-summary: Probe fluorescence ratio response to linolenic acid relative to ADIFAB2
Type: binding
condition-set: response relative to ADIFAB2
Rule: measured DR/DR LNA below 0.6 gets Criterion met; anything equal to or greater than 0.6 gets Criterion not met.

Q: Say whether its DR/DR LNA is strictly beneath 0.6. Entry: 36S, 72A (protein, listed as Rattus norvegicus, PEPTIDE (1)...(131) wild-type rat intestinal fatty acid binding protein) AFDGTWKVDRNENYEKFMEKMGINVVKRKLGAHDNSKLTITQEGNKFTVKESSNFRNIDVVFELGVDFAYSAADGTELTGTWTMEGNKLVGKFKRVDNGKELIAVREISGNELIQTYTYEGVEAKRIFKKE
A: Criterion met

Q: Say whether its DR/DR LNA is strictly beneath 0.6. Entry: 38A 106V 117A 72A (protein, listed as Rattus norvegicus, PEPTIDE (1)...(131) wild-type rat intestinal fatty acid binding protein) AFDGTWKVDRNENYEKFMEKMGINVVKRKLGAHDNLKATITQEGNKFTVKESSNFRNIDVVFELGVDFAYSAADGTELTGTWTMEGNKLVGKFKRVDNGKELIAVVEISGNELIQTATYEGVEAKRIFKKE
A: Criterion met

Q: Say whether its DR/DR LNA is strictly beneath 0.6. Entry: 72A 117A (protein, listed as Rattus norvegicus, PEPTIDE (1)...(131) wild-type rat intestinal fatty acid binding protein) AFDGTWKVDRNENYEKFMEKMGINVVKRKLGAHDNLKLTITQEGNKFTVKESSNFRNIDVVFELGVDFAYSAADGTELTGTWTMEGNKLVGKFKRVDNGKELIAVREISGNELIQTATYEGVEAKRIFKKE
A: Criterion not met

Q: Say whether its DR/DR LNA is strictly beneath 0.6. Entry: 102K, 72A (protein, listed as Rattus norvegicus, PEPTIDE (1)...(131) wild-type rat intestinal fatty acid binding protein) AFDGTWKVDRNENYEKFMEKMGINVVKRKLGAHDNLKLTITQEGNKFTVKESSNFRNIDVVFELGVDFAYSAADGTELTGTWTMEGNKLVGKFKRVDNGKEKIAVREISGNELIQTYTYEGVEAKRIFKKE
A: Criterion met

Q: Say whether its DR/DR LNA is strictly beneath 0.6. Entry: 36G2, 72A (protein, listed as Rattus norvegicus, PEPTIDE (1)...(131) wild-type rat intestinal fatty acid binding protein) AFDGTWKVDRNENYEKFMEKMGINVVKRKLGAHDNGKLTITQEGNKFTVKESSNFRNIDVVFELGVDFAYSAADGTELTGTWTMEGNKLVGKFKRVDNGKELIAVREISGNELIQTYTYEGVEAKRIFKKE
A: Criterion not met
